# Tested on: KB
# ASSAY_INFO: Cytotoxicity against human KB cells after 72 hrs by sulforhodamine B assay
# Type: functional
# MEASUREMENT_SETUP: read-out: ED50 (the source's name)
pEC50: −log10 of the molar value.
Listing of recorded pEC50 by entry.

- MOLECULE: "C=C1C(=O)O[C@@H]2C[C@@H]3[C@]4(CC[C@]5(C)[C@@H]([C@H](C)CC(=O)C=C(C)C)CC[C@@]35C)C[C@]4(CCC(=O)OC)[C@H]12 [SECAUBRYOLIDE]"
  pEC50: 5.70
- MOLECULE: "C=C(C(=O)O)[C@@H]1CC[C@@H]2[C@]3(CC[C@]4(C)[C@@H]([C@H](C)CC(=O)C=C(C)C)CC[C@@]24C)C[C@]13CCC(=O)O"
  pEC50: "< 5.00"
- MOLECULE: "CC(C)CC(=O)C[C@@H](C)[C@H]1CC[C@@]2(C)[C@@H]3CC[C@H]4[C@](C)(C(=O)O)[C@@H](O)C[C@H](O)[C@@]45C[C@@]35CC[C@]12C"
  pEC50: "< 5.00"
- MOLECULE: "CC(C)CC(=O)C[C@@H](C)[C@H]1CC[C@@]2(C)[C@@H]3CC[C@H]4[C@](C)(C(=O)O)[C@@H](O)CC[C@@]45C[C@@]35CC[C@]12C (relative stereo)"
  pEC50: "< 5.00"
- MOLECULE: "C=C(C(=O)O)[C@@H]1CC[C@@H]2[C@]3(CC[C@]4(C)[C@@H]([C@H](C)CC(=O)C=C(C)C)CC[C@@]24C)C[C@]13CCC(=O)OC (relative stereo)"
  pEC50: "< 5.00"

* * *

# ASSAY_SYSTEM: DNA topoisomerase 2-alpha (Homo sapiens)
# ASSAY_INFO: Inhibition of human DNA topoisomerase 2 alpha-mediated supercoiled pBR322 DNA relaxation at 20 uM after 1 hr by agarose gel electrophoresis
The source made the active and inactive calls. The calls are words filed in the database; no cut-off is given here.

- COMPOUND: "CC(C)CC(=O)C[C@@H](C)[C@H]1CC[C@@]2(C)[C@@H]3CC[C@H]4[C@](C)(C(=O)O)[C@@H](O)CC[C@@]45C[C@@]35CC[C@]12C (relative stereo)"
  inhibition: "Active"
- COMPOUND: "COc1cc([C@@H]2c3cc4c(cc3[C@@H](O[C@@H]3O[C@@H]5CO[C@@H](C)O[C@H]5[C@H](O)[C@H]3O)[C@H]3COC(=O)[C@H]23)OCO4)cc(OC)c1O"
  inhibition: "59%"
- COMPOUND: "C=C1C(=O)O[C@@H]2C[C@@H]3[C@]4(CC[C@]5(C)[C@@H]([C@H](C)CC(=O)C=C(C)C)CC[C@@]35C)C[C@]4(CCC(=O)O)[C@H]12 (relative stereo)"
  inhibition: "Active"
- COMPOUND: "C=C1C(=O)O[C@@H]2C[C@@H]3[C@]4(CC[C@]5(C)[C@@H]([C@H](C)CC(=O)C=C(C)C)CC[C@@]35C)C[C@]4(CCC(=O)OC)[C@H]12 [SECAUBRYOLIDE]"
  inhibition: "Active"
- COMPOUND: "C=C1C(=O)O[C@@H]2C[C@@H]3[C@]4(CC[C@]5(C)[C@@H]([C@H](C)CC(=O)CC(C)(C)O)CC[C@@]35C)C[C@]4(CCC(=O)OC)[C@H]12 (relative stereo)"
  inhibition: "Active"
- COMPOUND: "C=C(CO)[C@@H]1CC[C@@H]2[C@H](CC[C@]3(C)[C@@H]([C@H](C)CC(=O)C=C(C)C)CC[C@@]23C)C[C@]12CCC(=O)O2"
  inhibition: "Active"

* * *

# ASSAY_INFO: Cytotoxicity against rat ASK cells after 72 hrs by sulforhodamine B assay
# Format: functional
# MEASUREMENT_SETUP: read-out: ED50 (the source's name)
Listing of recorded EC50 by entry.
PROPERTY: EC50

- MOLECULE: "C=C(C(=O)O)[C@@H]1CC[C@@H]2[C@]3(CC[C@]4(C)[C@@H]([C@H](C)CC(=O)C=C(C)C)CC[C@@]24C)C[C@]13CCC(=O)O"
  VALUE_MEASURED: "> 10 µM"
- MOLECULE: "C=C1C(=O)O[C@@H]2C[C@@H]3[C@]4(CC[C@]5(C)[C@@H]([C@H](C)CC(=O)C=C(C)C)CC[C@@]35C)C[C@]4(CCC(=O)O)[C@H]12 (relative stereo)"
  VALUE_MEASURED: "> 10 µM"
- MOLECULE: "CC(C)CC(=O)C[C@@H](C)[C@H]1CC[C@@]2(C)[C@@H]3CC[C@H]4[C@](C)(C(=O)O)[C@@H](O)C[C@H](O)[C@@]45C[C@@]35CC[C@]12C"
  VALUE_MEASURED: "> 10 µM"
- MOLECULE: "C=C1C(=O)O[C@@H]2C[C@@H]3[C@]4(CC[C@]5(C)[C@@H]([C@H](C)CC(=O)CC(C)(C)O)CC[C@@]35C)C[C@]4(CCC(=O)OC)[C@H]12 (relative stereo)"
  VALUE_MEASURED: "5.8 µM"
- MOLECULE: "C=C(CO)[C@@H]1CC[C@@H]2[C@H](CC[C@]3(C)[C@@H]([C@H](C)CC(=O)C=C(C)C)CC[C@@]23C)C[C@]12CCC(=O)O2"
  VALUE_MEASURED: "> 10 µM"

* * *

# Tested on: P388
# ASSAY_INFO: Cytotoxicity against mouse P388 cells after 48 hrs by sulforhodamine B assay
# Type: functional
# MEASUREMENT_SETUP: P388, 48 h, read-out: ED50 (the source's name)
pEC50: −log10 of the molar value.
PROPERTY: pEC50

- COMPOUND: "C=C1C(=O)O[C@@H]2C[C@@H]3[C@]4(CC[C@]5(C)[C@@H]([C@H](C)CC(=O)C=C(C)C)CC[C@@]35C)C[C@]4(CCC(=O)OC)[C@H]12 [SECAUBRYOLIDE]"
  RELATION_SYMBOL: "="
  VALUE_MEASURED: 6.00
- COMPOUND: "C=C(C(=O)O)[C@@H]1CC[C@@H]2[C@]3(CC[C@]4(C)[C@@H]([C@H](C)CC(=O)C=C(C)C)CC[C@@]24C)C[C@]13CCC(=O)OC (relative stereo)"
  RELATION_SYMBOL: "<"
  VALUE_MEASURED: 5.00
- COMPOUND: "C=C1C(=O)O[C@@H]2C[C@@H]3[C@]4(CC[C@]5(C)[C@@H]([C@H](C)CC(=O)CC(C)(C)O)CC[C@@]35C)C[C@]4(CCC(=O)OC)[C@H]12 (relative stereo)"
  RELATION_SYMBOL: "="
  VALUE_MEASURED: 5.85
- COMPOUND: "CC(C)CC(=O)C[C@@H](C)[C@H]1CC[C@@]2(C)[C@@H]3CC[C@H]4[C@](C)(C(=O)O)[C@@H](O)C[C@H](O)[C@@]45C[C@@]35CC[C@]12C"
  RELATION_SYMBOL: "<"
  VALUE_MEASURED: 5.00
- COMPOUND: "C=C(CO)[C@@H]1CC[C@@H]2[C@H](CC[C@]3(C)[C@@H]([C@H](C)CC(=O)C=C(C)C)CC[C@@]23C)C[C@]12CCC(=O)O2"
  RELATION_SYMBOL: "="
  VALUE_MEASURED: 5.31
- COMPOUND: "C=C1COC(=O)CC[C@]23C[C@]24CC[C@]2(C)[C@@H]([C@H](C)CC(=O)C=C(C)C)CC[C@@]2(C)[C@@H]4CC[C@@H]13 (relative stereo)"
  RELATION_SYMBOL: "<"
  VALUE_MEASURED: 5.00
- COMPOUND: "Cc1c2ccncc2c(C)c2c1[nH]c1ccccc12"
  RELATION_SYMBOL: "="
  VALUE_MEASURED: 5.72
- COMPOUND: "C=C1C(=O)O[C@@H]2C[C@@H]3[C@]4(CC[C@]5(C)[C@@H]([C@H](C)CC(=O)C=C(C)C)CC[C@@]35C)C[C@]4(CCC(=O)O)[C@H]12 (relative stereo)"
  RELATION_SYMBOL: "="
  VALUE_MEASURED: 5.54
- COMPOUND: "CC(C)CC(=O)C[C@@H](C)[C@H]1CC[C@@]2(C)[C@@H]3CC[C@H]4[C@](C)(C(=O)O)[C@@H](O)CC[C@@]45C[C@@]35CC[C@]12C (relative stereo)"
  RELATION_SYMBOL: "="
  VALUE_MEASURED: 5.17
- COMPOUND: "C=C(C(=O)O)[C@@H]1CC[C@@H]2[C@]3(CC[C@]4(C)[C@@H]([C@H](C)CC(=O)C=C(C)C)CC[C@@]24C)C[C@]13CCC(=O)O"
  RELATION_SYMBOL: "<"
  VALUE_MEASURED: 5.00
